Attribution: patent US20220306762A1

- Target System: T1, His-tagged human CD38 (ACRO Biosystems CD8-H5224) (human, UniProt P28907 43-300)
- T1 construct: bought protein; used for ELISA coating and as SPR analyte; not shown: His tag
- Protocol Summary: SPR, IgG
pKd overview
Here pKd is given on a logarithmic scale as minus log10 of the concentration in mol/L.

Below are worked cases with known answers.
Binder	Reported Result
40596p2.1.B8 IgG (antibody, V domains shown, IgG) VH: EVQLLESGGGLGQPGGSLRLSCAASGFDFSSYAMSWVRQAPGKGLEWVAGGGWSGSFIYYADSVKGRFTISRDNSKNTLYLQMNSLRAEDTAVYYCTRNPGFGEMDVWGQGTTVTVSS VL: EIVLTQSPGTLSLSPGERATLSCRASQTVGSNLAWYQQKPGQAPRLLIHGANNRATDIPDRFSGSGSGTEFTLTVSSLQSEDFAIYYCQQYNSWPPLTFGGGTKVEIK	7.73
40769p2.1.C1 IgG (antibody, V domains shown, IgG) VH: EVQLLESGGGLVQPGGSLRLSCAASGFSFSDYWMNWVRQAPGKGLEWVSTISSGGNMIYYADSVKGRFTISRDNSKNTLYLRMNSLRAEDTAVYYCAKDNWNDYYGMDVWGQGTTVTVSS VL: QSVLTQPPSASGTPGQRVTISCSGSSSNIRDNYVYWYQQVPGTAPKLLIYKDDQRPSGVPDRFSGSKSGSSASLAISGLQSEDEADYYCATWDGSLNARVFGGGTKLTVL	7.22

The value of pKd measured for the binder 40769p2.1.G4 IgG (antibody, V domains shown, IgG) VH: EVQLLESGGGLVQPGGSLRLSCAASGFTFTSHDMNWVRQAPGKGLEWVSTITTGGNTYYADSVKGRFTISRDNSKNTLYLQMTSLRAEDTAVYYCTKHYSMDVWGQGTTVTVSS VL: QSVLTQPPSASGTPGQRVTISCSGSTSNVVFNAVYWYQQLPGTAPKLLFYGKSQRPSGVPDRFSGSKSGTSASLAISGLQSEDEADYYCAAWDDTLNGWVFGGGTKLTVL turned out to be 7.45
